Origin of measurements: paper PMC10398685

# assay.text: Microsomal stability, mouse
# Type: in vitro ADME
# test.settings: pH 7.4, 0.5 mg/ml mouse microsomes, triplicates, read-out: Microsomal stability T1/2
assay.metric: half-life at 5 µM (min)
Number in min, nothing else.

Which half-life at 5 µM is listed for CCN(C[C@H]1O[C@@H](n2cc(C#Cc3ccc(C(N)=O)cc3)c3c(N)ncnc32)[C@H](O)[C@@H]1O)S(=O)(=O)c1ccc(OC)c(C#N)c1 [Compound 12o] ? 74.9

Record request: half-life at 5 µM value, item CCN(C[C@H]1O[C@@H](n2cc(C#Cc3ccc(N)nc3)c3c(N)ncnc32)[C@H](O)[C@@H]1O)S(=O)(=O)c1ccc(OC)c(C#N)c1 [Compound 12h] 37.3

# input compound: CCN(C[C@H]1O[C@@H](n2cc(C#Cc3nc4ccccc4[nH]3)c3c(N)ncnc32)[C@H](O)[C@@H]1O)S(=O)(=O)c1ccc(OC)c(C#N)c1 [Compound 12a] ; wanted: its half-life at 5 µM 44.1

half-life at 5 µM for COc1ccc(S(=O)(=O)N(C)C[C@H]2O[C@@H](n3cc(C#Cc4cccnc4)c4c(N)ncnc43)[C@H](O)[C@@H]2O)cc1C#N [Compound 12s] ? 50.8

Can you share its half-life at 5 µM? I mean this compound: CCN(C[C@H]1O[C@@H](n2cc(C#Cc3cccnc3)c3c(N)ncnc32)[C@H](O)[C@@H]1O)S(=O)(=O)c1ccc(OC)c(C#N)c1 [Compound 12l] 33.7

====

Kindly state Plasma stability Rem. at 120 min for each of the entries shown.
# assay.text: Plasma stability, mouse
# Format: in vitro ADME
# test.settings: 5uM, triplicates
Use % as the unit, but write only the number.

# lookup: Plasma stability Rem. at 120 min of COc1ccc(S(=O)(=O)N(C)C[C@H]2O[C@@H](n3cc(C#Cc4ccc(C(N)=O)cc4)c4c(N)ncnc43)[C@H](O)[C@@H]2O)cc1C#N [Compound 12r] 113.5

Record request: Plasma stability Rem. at 120 min value, item COc1ccc(S(=O)(=O)N(C)C[C@H]2O[C@@H](n3cc(C#Cc4cnc5ccccc5c4)c4c(N)ncnc43)[C@H](O)[C@@H]2O)cc1C#N [Compound 12q] 113.2

Endpoint output: Plasma stability Rem. at 120 min of CCN(C[C@H]1O[C@@H](n2cc(C#Cc3cccnc3)c3c(N)ncnc32)[C@H](O)[C@@H]1O)S(=O)(=O)c1ccc(OC)c(C#N)c1 [Compound 12l] . Value? 109.9

====

# assay.text: Microsomal stability, human
# Assay type: in vitro ADME
# test.settings: 0.5 mg/ml human microsomes, 5uM, triplicates
Please provide measured Microsomal stability Rem. at 45 min for the entries that follow.
Entry rule: numbers only, all in %.

Field request: Microsomal stability Rem. at 45 min | item: CCN(C[C@H]1O[C@@H](n2cc(C#Cc3cccnc3)c3c(N)ncnc32)[C@H](O)[C@@H]1O)S(=O)(=O)c1ccc(OC)c(C#N)c1 [Compound 12l] 78.6

Please look up its Microsomal stability Rem. at 45 min: CCN(C[C@H]1O[C@@H](n2cc(C#Cc3cnc4ccccc4c3)c3c(N)ncnc32)[C@H](O)[C@@H]1O)S(=O)(=O)c1ccc(OC)c(C#N)c1 [Compound 12e] 60.2

# input compound: CCN(C[C@H]1O[C@@H](n2cc(C#Cc3ccc(C(N)=O)cc3)c3c(N)ncnc32)[C@H](O)[C@@H]1O)S(=O)(=O)c1ccc(OC)c(C#N)c1 [Compound 12o] ; wanted: its Microsomal stability Rem. at 45 min 30.5
